# measurement-target: human Orexin 1 receptor (Homo sapiens, UniProt O43613)
# Construct: stably expressing the full-length human Orexin 1 receptor; expressed in transfected cells; host or cells: CHO-K1 (CHO-K1/hOx1), co-expressing the aequorin photoprotein
# Sequence (O43613 whole entry): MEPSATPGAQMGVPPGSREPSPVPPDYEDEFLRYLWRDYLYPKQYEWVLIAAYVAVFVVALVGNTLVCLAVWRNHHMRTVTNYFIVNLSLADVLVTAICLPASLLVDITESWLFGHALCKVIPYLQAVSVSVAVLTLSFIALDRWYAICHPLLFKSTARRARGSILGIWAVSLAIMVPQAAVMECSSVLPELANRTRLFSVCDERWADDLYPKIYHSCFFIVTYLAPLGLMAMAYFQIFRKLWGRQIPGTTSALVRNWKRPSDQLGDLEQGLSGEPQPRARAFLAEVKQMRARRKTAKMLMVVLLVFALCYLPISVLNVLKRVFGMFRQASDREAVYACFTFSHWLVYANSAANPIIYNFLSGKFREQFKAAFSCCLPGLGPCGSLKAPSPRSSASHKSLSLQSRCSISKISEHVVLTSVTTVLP
# test-protocol: Assay A: OX1R IP1 (in vitro OX1R potency)
# Format: cell-based
# experimental-setup: in words, versus Example 91 in WO2016/034882
property-measured: OX1R potency compared to Example 91 in WO2016/034882

INSERT INTO results (compound, value_observed) VALUES
  ('CCN(C(=O)c1cc(OC)ccc1-n1nccn1)[C@@H](C)COc1ncc(C(F)(F)F)cn1 [Example 14]', 'increase'),
  ('CCN(C(=O)c1ccc(C)c(C)c1-n1nccn1)[C@@H](C)COc1ncc(C(F)(F)F)cn1 [Example 10]', 'increase'),
  ('CCN(C(=O)c1ccc(OC)cc1-n1nccn1)[C@@H](C)COc1ncc(C(F)(F)F)cn1 [Example 30]', 'increase');
